- Tested on: dengue virus type 2
- test_method_notes: Antiviral activity against 0.01 MOI DENV-2 NGC infected in BHK cells assessed as reduction in viral titer after 48 hrs
- Type: functional, organism-based
measure: EC50 (nM)
Give bare numbers, in nM.

molecule | EC50 [nM]
CCC1CCC(OCCCCCCN2C[C@H](O)[C@@H](O)[C@H](O)[C@H]2CO)CC1 (stereo partly specified) | 300
OC[C@@H]1[C@@H](O)[C@H](O)[C@@H](O)CN1CCCCCCOc1ccc(F)cc1 | 1100
OC[C@@H]1[C@@H](O)[C@H](O)[C@@H](O)CN1CCCCCCOC1CCCC1 | 1400
CCCC(CCC)OCCCCCCN1C[C@H](O)[C@@H](O)[C@H](O)[C@H]1CO | 300
Cc1cccc(OCCCCCCN2C[C@H](O)[C@@H](O)[C@H](O)[C@H]2CO)c1 | 600

I'm hoping you can list EC50 for every molecule here, please.
1. OC[C@@H]1[C@@H](O)[C@H](O)[C@@H](O)CN1CCCCCCOc1c(F)c(F)c(F)c(F)c1F
2. OC[C@@H]1[C@@H](O)[C@H](O)[C@@H](O)CN1CCCCCCOC1CCCCCC1
3. OC[C@@H]1[C@@H](O)[C@H](O)[C@@H](O)CN1CCCCCCOc1ccccc1
4. CCC(O)(CC)CCCCCCN1C[C@H](O)[C@@H](O)[C@H](O)[C@H]1CO
5. OC[C@@H]1[C@@H](O)[C@H](O)[C@@H](O)CN1CCCCCCOc1cccc(C(F)(F)F)c1
6. COc1ccccc1OCCCCCCN1C[C@H](O)[C@@H](O)[C@H](O)[C@H]1CO

*A*
[1700, 500, 1700, 6500, 400, 800]

Kindly give each listed record's EC50.
1. CCCOc1ccccc1CCCN1C[C@H](O)[C@@H](O)[C@H](O)[C@H]1CO
2. COc1ccc(OCCCCCCN2C[C@H](O)[C@@H](O)[C@H](O)[C@H]2CO)cc1
3. OC[C@@H]1[C@@H](O)[C@H](O)[C@@H](O)CN1CCCCCCOCc1ccccc1
4. CCCOc1cccc(CCCN2C[C@H](O)[C@@H](O)[C@H](O)[C@H]2CO)c1

*A*
1. 3200
2. 4000
3. 400
4. 300

*Q* Please look at this molecule and report its EC50: "Cc1ccccc1OCCCCCCN1C[C@H](O)[C@@H](O)[C@H](O)[C@H]1CO"
*A* 500
